System: Rindertubulin
assay procedure: Inhibition of tubulin polymerisation in vitro
Assay type: biochemical, Rind
stated conditions: verbal summary of Table 3
measurement name: Hemmwirkung auf die Polymerisation von Tubulin

O=C(Nc1cccc2cnccc12)C(=O)c1cn(Cc2ccc(Cl)cc2)c2ccccc12 :: keinen Effekt
Cc1ccc2cccc(NC(=O)C(=O)c3cn(Cc4ccc(F)cc4)c4ccccc34)c2n1 :: keinen Effekt

* * *

Test system: Rindertubulin
assay procedure: Inhibition of tubulin polymerisation in vitro
Type: biochemical, Rind
stated conditions: verbal summary of Table 3
measurement name: Hemmwirkung auf die Polymerisation von Tubulin

Cc1ccc2cc(NC(=O)C(=O)c3cn(Cc4ccc(Cl)cc4)c4ccccc34)ccc2n1 :: sehr potente Hemmwirkung
O=C(Nc1cnc2nccnc2c1)C(=O)c1cn(Cc2ccc(Cl)cc2)c2ccccc12 :: sehr potente Hemmwirkung
O=C(Nc1ccc2[nH]ncc2c1)C(=O)c1cn(Cc2ccc(Cl)cc2)c2ccccc12 :: sehr potente Hemmwirkung
